Just for reference, paper PMC12136788 is where these values come from.

Reported binding signal values for a set of binders
- tested.on: T1, UNK ZnF1-3 (human, UniProt Q9C0B0 31-174)
- T1 sequence: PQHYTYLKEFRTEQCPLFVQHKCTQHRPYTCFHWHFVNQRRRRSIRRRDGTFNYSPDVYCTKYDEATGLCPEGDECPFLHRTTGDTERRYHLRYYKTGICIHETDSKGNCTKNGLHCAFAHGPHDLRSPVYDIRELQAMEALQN
- measurement.notes: nsRBNS (natural sequence RNA bind-n-seq); RBNS binding buffer (assumed for nsRBNS): 25 mM Tris pH 7.5, 150 mM KCl, 3 mM MgCl2, 0.01% Triton X-100, 500 ug/ml BSA, 20 U/ml SUPERase-In, 4 C; UNK is unkempt and MSI1 is Musashi-1; names of the RNAs are library labels; protein concentration not given here; high values mean tight binding
Whole data set: some 24,000 sequences, median “enrichment r” near 0.99, cut for the highest 2% near 3.7. This is one part of a sample in which the highest values are shown more often than they occur.
// note: answer is a bare numeric in enrichment R

Example entries begin here.
>>> assay_value("chr10:70731730:70731731:+_ENSG00000165732_ENST00000354185|hu_hu|motif|central (ssRNA) RNA: GGGAGUUCUACAGUCCGACGAUCAACCUCAGGGAUGUCUAACCCACGUGCAGCAACAUUGGUUGCCACCAAAACUCCAAAACGGCCAUUUCUAAAACCUUUCAGGGUGAUUUCCCUUUGCUUCUGUGGAAUGUCUCCAUGCAACAACAGAGGAUUGAGCAUCA")
0.937
>>> assay_value("chr2:153237265:153237266:-_ENSMUSG00000061411_ENSMUST00000109784|mus_mus|mus_mus_mus_hu_False|1_58 (ssRNA) RNA: GGGAGUUCUACAGUCCGACGAUCAAAAAAAAAAAAAAAAAAGUGUCCUUGUGCCCAAAGUCUCAGGUGCUUGGAGUGCAGCUAGAAACAGCUCUUUUGGAUCCCACCUCUUUCAAAAACAAAAUGUACCAACUGGUAGGCAGGCAACAGAGGAUUGAGCAUCA")
7.14
>>> assay_value("chr12:56499883:56499884:+_ENSMUSG00000021024_ENSMUST00000021412|mus_mus|FALSE|FALSE (ssRNA) RNA: GGGAGUUCUACAGUCCGACGAUCGAUAGUAAUGUGACGGUCAAAACCGGCGCUGGAACCCCGGGACAUGGCGUUCCUGCUAUUUUAAACACAGUCUGCACCCCGUAGCACACACACCAGGGACCCAAGCCCCCUCCCGGAAGUCAACAGAGGAUUGAGCAUCA")
0.679
>>> assay_value("chr2:153237265:153237266:-_ENSMUSG00000061411_ENSMUST00000109784|mus_hu|motif|central (ssRNA) RNA: GGGAGUUCUACAGUCCGACGAUCAAAAAAAAAAAAAAAAAAGUGUCCUUGUGCCCAAAGUCUCAGGUGCUUGGAGUGUGGCGGGAAACAGCUCUUUUGGAUCCCACCUCUUUCAAAAACAAAAUGUACCAACUGGUGAGGCAGCAACAGAGGAUUGAGCAUCA")
5.88
>>> assay_value("chr5:128448638:128448639:+_ENSG00000066583_ENST00000173527|hu_mus|hu_hu_hu_mus_False|18_48 (ssRNA) RNA: GGGAGUUCUACAGUCCGACGAUCGGCACUCGCCUUAAUUAGGUUCUGAAUUUCCUUGAACUUCGGGUGGUCUUUGUCAGCCACCAGCUGAAGCAGAACAGCCUCACUAGUGGUCACUAUGAUCCCGGUGCGGGCAAGACGCUCCAACAGAGGAUUGAGCAUCA")
0.517
>>> assay_value("chr2:209110096:209110097:-_ENSG00000138413_ENST00000345146|hu_hu|FALSE|FALSE (ssRNA) RNA: GGGAGUUCUACAGUCCGACGAUCUUCUUCAAAGUUAUGUACCAGGUAUGUCACCUUUUGGGUUCCGUCACUUGGUGUGUAGGUUAUCUCUACUUUUCCAGGCCCAGGAACAACAAAAUCAGUUGCUCUGUAUUGAUCCCCAUACAACAGAGGAUUGAGCAUCA")
0.472

Shift focus to the following entry.
IN: Quickly give me recorded binding signal for chr2:153237265:153237266:-_ENSMUSG00000061411_ENSMUST00000109784|mus_mus|mus_mus_mus_hu_False|1_78 (ssRNA) RNA: GGGAGUUCUACAGUCCGACGAUCAAAAAAAAAAAAAAAAAAGUGUCCUUGUGCCCAAAGUCUCAGAUGCUUGGAGUGUGGCUAGAAACAGCUCUUUUGGAUCCCACCUCUUUCAAAAACAAAAUGUACCAACUGGUAGGCAGGCAACAGAGGAUUGAGCAUCA
OUT: 8.18
